Origin of values: PubChem BioAssay AID2060898

Test system: 616215-338-R-J1-PDC complex spheroid viability
test-summary: Anticancer human tumor 616215-338-R-J1-PDC patient-derived colon adenocarcinoma cell line growth inhibition [RAS]; active means viability on the fitted dose curve at most 10% of control; inactive means the rest
measurement-parameters: second compound 0.003 µM; first compound 10 µM
Possible outcomes: active, inactive

compound	test-target	class-assignment
Cc1nc(N2CCC3(CC2)COC(C)C3N)c(CO)nc1Sc1ccnc(N)c1Cl (configuration not stated) + CCn1c(-c2cccnc2C(C)OC)c2c3cc(ccc31)N1CCOC(CC(NC(=O)C(C(C)C)N(C)C(=O)C3(F)CCN(C(=O)C#CC(C)(C)N(C)C)CC3)C(=O)N3CCCC(N3)C(=O)OCC(C)(C)C2)C1	616215-338-R-J1-PDC complex spheroid viability	inactive
CCC(CC)c1cc(NC2CCC(N)C2)n2nccc2n1 (configuration not stated) + CCn1c(-c2cccnc2C(C)OC)c2c3cc(ccc31)N1CCOC(CC(NC(=O)C(C(C)C)N(C)C(=O)C3(F)CCN(C(=O)C#CC(C)(C)N(C)C)CC3)C(=O)N3CCCC(N3)C(=O)OCC(C)(C)C2)C1	616215-338-R-J1-PDC complex spheroid viability	active

====

System: 616215-338-R-J1-PDC complex spheroid viability
test-summary: Anticancer human tumor 616215-338-R-J1-PDC cell line growth inhibition [RAS];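 further: spheroids exposed to agents for seven days before viability readout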
measurement-parameters: curve of first compound; second compound 1 µM
Listing of entries alongside the reported IC50.
measured-quantity: IC50 (nM)

molecule	measured-quantity	recorded-number
Nc1ccn(C2OC(CO)C(O)C2(F)F)c(=O)n1 (stereo not given) + C#Cc1c(F)ccc2cc(O)cc(-c3ncc4c(N5CC6CCC(C5)N6)nc(OCC56CCCN5CC(F)C6)nc4c3F)c12	IC50	5.94
C=CC(=O)Nc1cc(Nc2nccc(-c3cn(C)c4ccccc34)n2)c(OC)cc1N(C)CCN(C)C + C#Cc1c(F)ccc2cc(O)cc(-c3ncc4c(N5CC6CCC(C5)N6)nc(OCC56CCCN5CC(F)C6)nc4c3F)c12	IC50	587
O=C(c1ccc(F)c(F)c1Nc1ccc(I)cc1F)N1CC(O)([C@@H]2CCCCN2)C1 + C=CC(=O)N1CCN(c2nc(OCC3CCCN3C)nc3c(F)c(-c4nc(N)cc(C)c4C(F)(F)F)c(Cl)cc23)C(C)C1	IC50	61.3
CC1(O)CCCC1n1c(=O)c(C(F)F)cc2cnc(NC3CCN(S(C)(=O)=O)CC3)nc21 (stereo not given) + C#Cc1c(F)ccc2cc(O)cc(-c3ncc4c(N5CC6CCC(C5)N6)nc(OCC56CCCN5CC(F)C6)nc4c3F)c12	IC50	255
NC1c2ccccc2OC12CCN(c1cnc3c(N4CCCc5ncccc54)n[nH]c3n1)CC2 (stereo not given) + C#Cc1c(F)ccc2cc(O)cc(-c3ncc4c(N5CC6CCC(C5)N6)nc(OCC56CCCN5CC(F)C6)nc4c3F)c12	IC50	198
Nc1ccn(C2OC(CO)C(O)C2(F)F)c(=O)n1 (stereo not given) + C=CC(=O)N1CCN(c2nc(OCC3CCCN3C)nc3c(F)c(-c4nc(N)cc(C)c4C(F)(F)F)c(Cl)cc23)C(C)C1	IC50	9.78

====

Listing of entries alongside the reported viability, T/C.
Tested on: 616215-338-R-J1-PDC complex spheroid viability
test-summary: Anticancer human tumor 616215-338-R-J1-PDC cell line growth inhibition [RAS];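 further: spheroids exposed to agents for seven days before viability readout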;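 on viability, T/C: 100% = DMSO vehicle control viability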
measurement-parameters: second compound 0.003 µM; first compound 0.1 µM; stronger effect = lower value

compound	viability, T/C [%]
CC1(O)CCCC1n1c(=O)c(C(F)F)cc2cnc(NC3CCN(S(C)(=O)=O)CC3)nc21 (stereo not drawn) + CCn1c(-c2cc(N3CCN(C)CC3)cnc2C(C)OC)c2c3cc(ccc31)-c1csc(n1)CC(NC(=O)C1CC1C)C(=O)N1CCCC(N1)C(=O)OCC(C)(C)C2	65.1
O=C(c1ccc(F)c(F)c1Nc1ccc(I)cc1F)N1CC(O)([C@@H]2CCCCN2)C1 + CCn1c(-c2cccnc2C(C)OC)c2c3cc(ccc31)N1CCOC(CC(NC(=O)C(C(C)C)N(C)C(=O)C3(F)CCN(C(=O)C#CC(C)(C)N(C)C)CC3)C(=O)N3CCCC(N3)C(=O)OCC(C)(C)C2)C1	30.5
Cc1nc(N2CCC3(CC2)COC(C)C3N)c(CO)nc1Sc1ccnc(N)c1Cl (stereo not drawn) + CCn1c(-c2cccnc2C(C)OC)c2c3cc(ccc31)N1CCOC(CC(NC(=O)C(C(C)C)N(C)C(=O)C3(F)CCN(C(=O)C#CC(C)(C)N(C)C)CC3)C(=O)N3CCCC(N3)C(=O)OCC(C)(C)C2)C1	112
